Listing of recorded IC50 by entry.
- tested_on: TNFα (Homo sapiens (Human), UniProt P01375)
- Sequence (P01375 77-233): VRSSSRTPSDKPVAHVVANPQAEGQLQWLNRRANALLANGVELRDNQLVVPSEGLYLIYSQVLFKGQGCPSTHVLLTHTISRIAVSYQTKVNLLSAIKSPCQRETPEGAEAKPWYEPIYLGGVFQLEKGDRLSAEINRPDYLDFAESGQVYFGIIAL
- test_method_notes: TNF induced HEK-Blue assay
- study_conditions: TNFα 0.5 ng/ml; HEK-Blue-CD40L cells, NF-κB-driven secreted alkaline phosphatase reporter; 18 h

For CCCOc1ccc(-c2ccc3nc4c(n3n2)[C@@H](c2ccccc2OC(F)F)NC[C@H]4O)cc1 (racemic) [Example 33] on TNFα (Homo sapiens (Human), UniProt P01375), measured IC50 was < 1 µM

* * *

Listing of recorded IC50 by entry.
- tested_on: TNFα (Homo sapiens (Human))
- test_method_notes: TNF induced HEK-Blue assay
- study_conditions: TNFα 0.5 ng/ml; HEK-Blue-CD40L cells, NF-κB-driven secreted alkaline phosphatase reporter; 18 h

// below: answered compounds
CC(C)(O)COc1ccc(-c2ccc3nc4c(n3n2)[C@@H](c2ccccc2OC(F)F)NC[C@H]4O)cc1 (racemic) [Example 29]: 1 to 10 µM
CC(C)(O)c1ccc(-c2ccc3nc4c(n3n2)C(c2ccccc2OC(F)F)NCC4F)cc1 (stereo not shown) [Example 12]: < 1 µM
COc1cc(-c2ccc3nc4c(n3n2)[C@@H](c2ccccc2OC(F)F)NC[C@H]4O)ccc1OCC(C)(C)O (racemic) [Example 30]: 1 to 10 µM
O=C(c1ccc(-c2ccc3nc4c(n3n2)[C@@H](c2ccccc2OC(F)F)NC[C@H]4O)cc1Cl)N1CCOCC1 (racemic) [Example 47]: 1 to 10 µM
CCOc1ccc(-c2ccc3nc4c(n3n2)[C@@H](c2ccccc2OC(F)F)NC[C@H]4O)cc1 (racemic) [Example 31]: 1 to 10 µM

response.value for CC(C)(O)c1ccc(-c2ccc3nc4c(n3n2)[C@H](c2ccccc2OC(F)F)NC[C@H]4O)cc1 [Example 14] (field: IC50) = 1 to 10 µM

response.value for CC(C)(O)c1ncc(-c2ccc3nc4c(n3n2)C(c2ccccc2OC(F)F)OCC4)cn1 (stereo not shown) [Example 63] (field: IC50) = < 1 µM

* * *

Listing of recorded pIC50 by entry.
- tested_on: TNFα (Homo sapiens (Human))
- test_method_notes: TNF induced HEK-Blue assay
- study_conditions: TNFα 0.5 ng/ml; HEK-Blue-CD40L cells, NF-κB-driven secreted alkaline phosphatase reporter; 18 h
- Experimental: TNF or CD40L-induced HEK-Blue Assay Test compounds serially diluted in DMSO were plated in an assay plate (Labcyte, Cat. #LP-0200) at final concentrations ranging from 0.004 μM to 25μM. […] Secreted alkaline phosphatase expression was measured using QUANTI-Blue (InvivoGen, Cat. Code rep-qb1) according to manufacturer's specifications and the assay plate was read on a PerkinElmer Envision at 620 nm. […]
pIC50: −log10 of the molar value.

// below: answered molecules
CCc1ccccc1[C@@H]1NC[C@@H](O)c2nc3ccc(-c4ccc(C(C)(C)O)cc4)nn3c21 (racemic): > 6.00
CC(C)(O)c1ccc(-c2ccc3nc4c(n3n2)[C@H](c2ccccc2OC(F)F)OC[C@H]4O)cc1 (racemic): 5.00 to 6.00
CC(C)(O)c1ccc(-c2ccc3nc4c(n3n2)[C@H](c2ccccc2OC(F)F)NC[C@H]4F)cc1 (racemic): 5.00 to 6.00
O=C(NC1CC1)c1ccc(-c2ccc3nc4c(n3n2)C(c2ccccc2OC(F)F)NCC4O)cn1 (stereo not shown): 5.00 to 6.00
CC(C)(O)c1ccc(-c2ccc3nc4c(n3n2)[C@H](c2cc(Cl)ccc2OC(F)F)NC[C@H]4O)cc1 (racemic): 5.00 to 6.00

response.value for CC(C)(O)c1ncc(-c2ccc3nc4c(n3n2)C(c2ccccc2OC(F)F)NCC4O)cn1 (stereo not shown) (field: pIC50) = 5.00 to 6.00

response.value for CC(C)(O)c1ccc(-c2ccc3nc4c(n3n2)[C@H](c2ccccc2OC(F)F)OC[C@@H]4O)cc1 (relative stereo) (field: pIC50) = > 6.00

response.value for CC(C)(O)c1ccc(-c2ccc3nc4c(n3n2)C(c2ccccc2OC(F)F)OCC4(C)O)cc1 (stereo not shown) (field: pIC50) = 5.00 to 6.00

response.value for CC(C)(C)COc1ccc(-c2ccc3nc4c(n3n2)[C@@H](c2ccccc2OC(F)F)NC[C@H]4O)cc1 (racemic) (field: pIC50) = > 6.00

response.value for COc1ccc(-c2ccc3nc4c(n3n2)[C@@H](c2ccccc2OC(F)F)NC[C@H]4F)cn1 (racemic) (field: pIC50) = 4.60 to 5.00

response.value for CC(C)(O)c1ccc(-c2ccc3nc4c(n3n2)[C@@H](c2ccccc2OC(F)F)NC[C@@H]4O)cc1 (field: pIC50) = 5.00 to 6.00

response.value for O=C(NC1CC1)c1ccc(-c2ccc3nc4c(n3n2)C(c2ccccc2OC(F)F)NCC4O)cc1 (stereo not shown) (field: pIC50) = 4.60 to 5.00

Hello, the source for this data is patent US10308652B2, in case you need it.
